Provide the recorded DC50 for the entries that follow.
Target: androgen receptor (AR) splicing variant AR-v7 (Homo sapiens)
Construct: The degradation activity of compounds on AR-v7 in 22RV1 cells; host or cells: 22RV1 cells
Test: Degradation activity on androgen receptor splicing variant AR-v7 in 22RV1 cells (ELISA)
Assay type: cell-based
Conditions: AR-v7 degradation in 22RV1 cells, 48 h, class symbols

Look over these answered cases.
CC(C)(c1ccc(Oc2cnc(CN3CC(F)(F)C3)nc2)cc1)c1ccc(OC2CC(Nc3ccc4c(c3)C(=O)N(C3CCC(=O)NC3=O)C4=O)C2)cc1 (centres unmarked): 11 to 100 nM
CC(C)(c1ccc(OCCCNc2ccc3c(c2)C(=O)N(C2CCC(=O)NC2=O)C3=O)cc1)c1ccc(OCc2nc(C(=O)N3CCCC3)no2)cc1 (centres unmarked): 101 to 1000 nM
CC(C)(c1ccc(OCCNC(=O)c2ccc3c(c2)C(=O)N(C2CCC(=O)NC2=O)C3=O)cc1)c1ccc(OCc2ccnc(N3CC4(COC4)C3)n2)cc1 (centres unmarked): 1000 to 5000 nM
Cc1nnc(-c2cc(Oc3ccc(C(C)(C)c4ccc(O[C@H]5C[C@H](Nc6ccc7c(c6)C(=O)N(C6CCC(=O)NC6=O)C7=O)C5)cc4)cc3)ccn2)o1 (some centres unmarked): < 10 nM
Cc1nc(-c2ncc(Oc3ccc(C(C)(C)c4ccc(O[C@H]5C[C@H](Nc6ccc7c(c6)C(=O)N(C6CCC(=O)NC6=O)C7=O)C5)cc4)cc3)cc2F)no1 (some centres unmarked): 11 to 100 nM
CC(C)(c1ccc(OCc2nc(-n3ccnn3)ccc2F)cc1)c1ccc(O[C@H]2C[C@H](Nc3ccc4c(c3)C(=O)N(C3CCC(=O)NC3=O)C4=O)C2)cc1 (some centres unmarked): 11 to 100 nM

// for each molecule below, give its DC50
1. Cc1nc(-c2ncc(Oc3ccc(C(C)(C)c4ccc(O[C@H]5C[C@H](Nc6cc7c(cc6F)C(=O)N(C6CCC(=O)NC6=O)C7=O)C5)cc4)cc3)cn2)no1 (some centres unmarked)
2. CC1CN(c2nccc(COc3ccc(C(C)(C)c4ccc(O[C@H]5C[C@H](Nc6ccc7c(c6)C(=O)N(C6CCC(=O)NC6=O)C7=O)C5)cc4)cc3)n2)CCN1C (some centres unmarked)
3. CC(C)C(=O)c1ncc(Oc2ccc(C(C)(C)c3ccc(O[C@H]4C[C@H](Nc5ccc6c(c5)C(=O)N(C5CCC(=O)NC5=O)C6=O)C4)cc3)cc2)cn1 (some centres unmarked)
4. CC(O)c1ccc(Oc2ccc(C(C)(C)c3ccc(O[C@H]4C[C@H](Nc5ccc6c(c5)C(=O)N(C5CCC(=O)NC5=O)C6=O)C4)cc3)cc2)nn1 (some centres unmarked)
5. CC(C)(c1ccc(Oc2cnc(C(=O)O)nc2)cc1)c1ccc(O[C@H]2C[C@H](Nc3ccc4c(c3)C(=O)N(C3CCC(=O)NC3=O)C4=O)C2)cc1 (some centres unmarked)

["11 to 100 nM", "11 to 100 nM", "< 10 nM", "< 10 nM", "101 to 1000 nM"]

----------
Biological target: androgen receptor (AR) splicing variant AR-v7 (Homo sapiens, UniProt P10275)
Construct: The degradation activity of compounds on AR-v7 in 22RV1 cells; host or cells: 22RV1 cells
Sequence (P10275 1-644 isoform P10275-3): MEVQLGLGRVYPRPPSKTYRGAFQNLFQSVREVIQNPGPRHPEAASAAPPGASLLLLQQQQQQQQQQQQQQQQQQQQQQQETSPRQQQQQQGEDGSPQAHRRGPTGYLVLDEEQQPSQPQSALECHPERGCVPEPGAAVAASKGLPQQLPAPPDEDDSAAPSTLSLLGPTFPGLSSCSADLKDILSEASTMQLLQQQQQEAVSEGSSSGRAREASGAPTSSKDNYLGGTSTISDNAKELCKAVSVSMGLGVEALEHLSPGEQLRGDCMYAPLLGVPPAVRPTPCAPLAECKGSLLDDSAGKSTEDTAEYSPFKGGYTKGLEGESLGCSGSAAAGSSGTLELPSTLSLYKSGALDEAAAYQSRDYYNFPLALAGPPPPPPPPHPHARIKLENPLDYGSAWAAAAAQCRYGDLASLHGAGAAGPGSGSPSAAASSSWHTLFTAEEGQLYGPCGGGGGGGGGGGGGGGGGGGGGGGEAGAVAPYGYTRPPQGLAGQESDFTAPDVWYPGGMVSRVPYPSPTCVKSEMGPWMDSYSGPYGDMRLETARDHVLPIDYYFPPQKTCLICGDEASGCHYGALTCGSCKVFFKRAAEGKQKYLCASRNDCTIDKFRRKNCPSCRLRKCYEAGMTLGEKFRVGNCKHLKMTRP
Experiment: Degradation activity on androgen receptor splicing variant AR-v7 in 22RV1 cells (ELISA)
Format: cell-based
Conditions: AR-v7 degradation in 22RV1 cells, 48 h, class symbols
Assign DC50 to each entry below.

Below are worked cases with known answers.
CC(C)C(O)c1ncc(Oc2ccc(C(C)(C)c3ccc(O[C@H]4C[C@H](Nc5ccc6c(c5)C(=O)N(C5CCC(=O)NC5=O)C6=O)C4)cc3)cc2)cn1 (stereo partly drawn): < 10 nM
CC(C)(c1ccc(OCc2nc(N3CC4(COC4)C3)ncc2F)cc1)c1ccc(O[C@H]2C[C@H](Nc3ccc4c(c3)C(=O)N(C3CCC(=O)NC3=O)C4=O)C2)cc1 (stereo partly drawn): < 10 nM

Below: the item to evaluate.
I am curious: what DC50 value has been reported for O=C1CCC(N2C(=O)c3ccc(N[C@H]4C[C@H](Oc5ccc(C6(c7ccc(OCc8ccnc(N9CC%10(COC%10)C9)n8)cc7)CCC6)cc5)C4)cc3C2=O)C(=O)N1 (stereo partly drawn) ? < 10 nM

----------
Experiment: Pharmacokinetics in mice (plasma exposure after oral administration)
Format: in vivo
Conditions: mouse, ICR mice, oral (i.g.) 3 mg/kg, read-out: After oral administration of 3 mg/kg, mouse plasma exposure AUCinf
readout-type: AUC(0-inf)

CNC(=O)c1nccc(COc2ccc(C(C)(C)c3ccc(O[C@H]4C[C@@H](Nc5ccc6c(c5)C(=O)N(C5CCC(=O)NC5=O)C6=O)C4)cc3)cc2)n1 (stereo partly drawn): 100 to 1000 ng·h/mL
Cc1nnc(-c2ccnc(Oc3ccc(C(C)(C)c4ccc(O[C@H]5C[C@H](Nc6ccc7c(c6)C(=O)N(C6CCC(=O)NC6=O)C7=O)C5)cc4)cc3)n2)o1 (stereo partly drawn): 5000 to 30000 ng·h/mL
CC(O)c1ncc(Oc2ccc(C3(c4ccc(O[C@H]5C[C@H](Nc6ccc7c(c6)C(=O)N(C6CCC(=O)NC6=O)C7=O)C5)cc4)CC3)cc2)cn1 (stereo partly drawn): 5000 to 30000 ng·h/mL
C=CC(c1ccc(Oc2cnc(-c3noc(C)n3)nc2)cc1)c1ccc(O[C@H]2C[C@H](Nc3ccc4c(c3)C(=O)N(C3CCC(=O)NC3=O)C4=O)C2)cc1 (stereo partly drawn): 5000 to 30000 ng·h/mL
Cc1nnc(-c2ncc(Oc3ccc(C4(c5ccc(O[C@H]6C[C@H](Nc7ccc8c(c7)C(=O)N(C7CCC(=O)NC7=O)C8=O)C6)cc5)CCCC4)cc3)cn2)o1 (stereo partly drawn): 5000 to 30000 ng·h/mL

# context switch: different compound, same AUC(0-inf)
Value lookup for AUC(0-inf); key = CC(C)(c1ccc(O)cc1)c1ccc(OCCCCCCCCOCCCCNc2ccc3c(c2)C(=O)N(C2CCC(=O)NC2=O)C3=O)cc1 (stereo not drawn) 5000 to 30000 ng·h/mL

----------
Assay: Pharmacokinetics in mice (plasma exposure after oral administration)
Assay type: in vivo
Details: mouse, ICR mice, oral (i.g.) 3 mg/kg, read-out: After oral administration of 3 mg/kg, mouse plasma exposure AUCinf
readout-type: AUC(0-inf)

Below, 3 compounds whose answers are already recorded.
CC(C)(c1ccc(Oc2ccc(-n3nccn3)nc2)cc1)c1ccc(O[C@H]2C[C@H](Nc3ccc4c(c3)CN(C3CCC(=O)NC3=O)C4=O)C2)cc1 (stereo partly drawn): 1000 to 5000 ng·h/mL
CC(C)(c1ccc(OCc2ccnc(N3CC4(COC4)C3)n2)cc1)c1ccc(N2CC(Nc3ccc4c(c3)C(=O)N(C3CCC(=O)NC3=O)C4=O)C2)cc1 (stereo not drawn): 1000 to 5000 ng·h/mL
O=C1CCC(N2C(=O)c3ccc(N[C@H]4C[C@H](Oc5ccc(C6(c7ccc(OCc8ccnc(N9CC%10(COC%10)C9)n8)cc7)COC6)cc5)C4)cc3C2=O)C(=O)N1 (stereo partly drawn): 5000 to 30000 ng·h/mL

Hi there! I need AUC(0-inf) for each item below, if you can.
1. CC(C)(c1ccc(OCc2ccnc(N3CC4(COC4)C3)n2)cc1)c1ccc(C(=O)Nc2ccc3c(c2)C(=O)N(C2CCC(=O)NC2=O)C3=O)cc1 (stereo not drawn)
2. CC1(N)CN(c2nccc(COc3ccc(C(C)(C)c4ccc(O[C@H]5C[C@@H](Nc6ccc7c(c6)C(=O)N(C6CCC(=O)NC6=O)C7=O)C5)cc4)cc3)n2)C1 (stereo partly drawn)
3. CC(C)(c1ccc(Oc2cc(F)cnc2-n2ccnn2)cc1)c1ccc(O[C@H]2C[C@H](Nc3ccc4c(c3)C(=O)N(C3CCC(=O)NC3=O)C4=O)C2)cc1 (stereo partly drawn)

["100 to 1000 ng·h/mL", "1000 to 5000 ng·h/mL", "1000 to 5000 ng·h/mL"]

----------
Biological target: androgen receptor (AR) splicing variant AR-v7 (Homo sapiens)
Construct: The degradation activity of compounds on AR-v7 in 22RV1 cells; host or cells: 22RV1 cells
Experiment: Degradation activity on androgen receptor splicing variant AR-v7 in 22RV1 cells (ELISA)
Assay type: cell-based
Conditions: AR-v7 degradation in 22RV1 cells, 48 h, class symbols
readout-type: DC50

Below: 4 compounds and their reported DC50.
CC(C)(c1ccc(OCc2ccnc(C(=O)C3CC3)n2)cc1)c1ccc(O[C@H]2C[C@H](Nc3ccc4c(c3)C(=O)N(C3CCC(=O)NC3=O)C4=O)C2)cc1 (some centres unmarked): < 10 nM
CC(=O)c1nccc(COc2ccc(C(C)(C)c3ccc(O[C@H]4C[C@H](Nc5ccc6c(c5)C(=O)N(C5CCC(=O)NC5=O)C6=O)C4)cc3)cc2)n1 (some centres unmarked): < 10 nM
CC(C)(c1ccc(OCc2ccnc(O[C@@H]3CCNC3)n2)cc1)c1ccc(O[C@H]2C[C@@H](Nc3ccc4c(c3)C(=O)N(C3CCC(=O)NC3=O)C4=O)C2)cc1 (some centres unmarked): 11 to 100 nM
Cc1noc(-c2ncc(Oc3ccc(C4(c5ccc(O[C@H]6C[C@H](Nc7ccc8c(c7)C(=O)N(C7CCC(=O)NC7=O)C8=O)C6)cc5)CCCC4)cc3)cn2)n1 (some centres unmarked): < 10 nM

List the reported DC50 of each compound below.
1. CC(=O)c1cc(COc2ccc(C(C)(C)c3ccc(OCCCCCCCCOCCCCNc4ccc5c(c4)C(=O)N(C4CCC(=O)NC4=O)C5=O)cc3)cc2)ccn1 (centres unmarked)
2. CC(C)(c1ccc(OCc2ccnc(N3CC4(CCO4)C3)n2)cc1)c1ccc(O[C@H]2C[C@@H](Nc3ccc4c(c3)C(=O)N(C3CCC(=O)NC3=O)C4=O)C2)cc1 (some centres unmarked)

1: 1000 to 5000 nM; 2: < 10 nM
